Tested on: NCI-H2009
Assay: relative viability (nuclei count vs DMSO), 5 days (fraction); higher = more cells survive
Conditions: first compound 2.53 µM
endpoint_name: relative viability
Give the value as a plain number.

Reference set (3 entries):
compound: O=c1[nH]c2ccccc2n1C1CCN(CCCC(c2ccc(F)cc2)c2ccc(F)cc2)CC1 [Pimozide] + COc1cc2c(Oc3ccc(NC(=O)C4(C(=O)Nc5ccc(F)cc5)CC4)cc3F)ccnc2cc1OCCCN1CCOCC1 [Foretinib] (partner 0.25 µM)
relative viability: 1.09
--
compound: O=c1[nH]c2ccccc2n1C1CCN(CCCC(c2ccc(F)cc2)c2ccc(F)cc2)CC1 [Pimozide] + C[C@@H](Oc1cc(-c2cnn(C3CCNCC3)c2)cnc1N)c1c(Cl)ccc(F)c1Cl [Crizotinib] (partner 1 µM)
relative viability: 1.01
--
compound: Cc1cnc(-c2cnc(NCCNc3ccc(C#N)cn3)nc2-c2ccc(Cl)cc2Cl)[nH]1 + O=C(c1cc(Cc2n[nH]c(=O)c3ccccc23)ccc1F)N1CCN(C(=O)C2CC2)CC1 [Olaparib] (partner 8 µM)
relative viability: 0.605

query: Give NCI-H2009 relative viability for the following compound: Cc1cnc(-c2cnc(NCCNc3ccc(C#N)cn3)nc2-c2ccc(Cl)cc2Cl)[nH]1 + Nc1ncn([C@H]2C[C@H](O)[C@@H](CO)O2)c(=O)n1 [Decitabine] (partner 2 µM)
result: 0.395

query: Give NCI-H2009 relative viability for the following compound: Cc1cnc(-c2cnc(NCCNc3ccc(C#N)cn3)nc2-c2ccc(Cl)cc2Cl)[nH]1 + Cc1cc(Nc2cc(N3CCN(C)CC3)nc(Sc3ccc(NC(=O)C4CC4)cc3)n2)n[nH]1 [Tozasertib] (partner 0.1 µM)
result: 0.452

query: Give NCI-H2009 relative viability for the following compound: Cc1cnc(-c2cnc(NCCNc3ccc(C#N)cn3)nc2-c2ccc(Cl)cc2Cl)[nH]1 + Cc1nc(NC(=O)N2CCC[C@H]2C(N)=O)sc1-c1ccnc(C(C)(C)C(F)(F)F)c1 [Alpelisib] (partner 2 µM)
result: 1.05

query: Give NCI-H2009 relative viability for the following compound: O=c1[nH]c2ccccc2n1C1CCN(CCCC(c2ccc(F)cc2)c2ccc(F)cc2)CC1 [Pimozide] + C[C@]1(O)C[C@@H](c2nc(-c3ccc4ccc(-c5ccccc5)nc4c3)c3c(N)nccn32)C1 [Linsitinib] (partner 1 µM)
result: 1.2

###

# key: entry, value: relative viability
Test system: NCI-H1755
Experiment: relative viability (nuclei count vs DMSO), 5 days (fraction); higher = more cells survive
Settings: first compound 0.05 µM
Give the value as a plain number.

Reference set (2 entries):
compound: COc1cc2nccc(Oc3ccc(NC(=O)Nc4cc(C)on4)c(Cl)c3)c2cc1OC [Tivozanib] + O=C(c1cc(Cc2n[nH]c(=O)c3ccccc23)ccc1F)N1CCN(C(=O)C2CC2)CC1 [Olaparib] (partner 8 µM)
relative viability: 0.936
//
compound: COc1cc2nccc(Oc3ccc(NC(=O)Nc4cc(C)on4)c(Cl)c3)c2cc1OC [Tivozanib] + CC(=O)Nc1cccc(-n2c(=O)n(C3CC3)c(=O)c3c(Nc4ccc(I)cc4F)n(C)c(=O)c(C)c32)c1 [Trametinib] (partner 0.02 µM)
relative viability: 0.804

Let us move to another entry and its relative viability.
query: Please indicate relative viability recorded for COc1cc2nccc(Oc3ccc(NC(=O)Nc4cc(C)on4)c(Cl)c3)c2cc1OC [Tivozanib] + Cc1nc(Nc2ncc(C(=O)Nc3c(C)cccc3Cl)s2)cc(N2CCN(CCO)CC2)n1 [Dasatinib] (partner 0.075 µM)
result: 0.432

Sourced from the supplement of paper PMC10307832
